- tested-target: IDE (Homo sapiens, UniProt P14735)
- Sequence (P14735 whole entry, species assumed): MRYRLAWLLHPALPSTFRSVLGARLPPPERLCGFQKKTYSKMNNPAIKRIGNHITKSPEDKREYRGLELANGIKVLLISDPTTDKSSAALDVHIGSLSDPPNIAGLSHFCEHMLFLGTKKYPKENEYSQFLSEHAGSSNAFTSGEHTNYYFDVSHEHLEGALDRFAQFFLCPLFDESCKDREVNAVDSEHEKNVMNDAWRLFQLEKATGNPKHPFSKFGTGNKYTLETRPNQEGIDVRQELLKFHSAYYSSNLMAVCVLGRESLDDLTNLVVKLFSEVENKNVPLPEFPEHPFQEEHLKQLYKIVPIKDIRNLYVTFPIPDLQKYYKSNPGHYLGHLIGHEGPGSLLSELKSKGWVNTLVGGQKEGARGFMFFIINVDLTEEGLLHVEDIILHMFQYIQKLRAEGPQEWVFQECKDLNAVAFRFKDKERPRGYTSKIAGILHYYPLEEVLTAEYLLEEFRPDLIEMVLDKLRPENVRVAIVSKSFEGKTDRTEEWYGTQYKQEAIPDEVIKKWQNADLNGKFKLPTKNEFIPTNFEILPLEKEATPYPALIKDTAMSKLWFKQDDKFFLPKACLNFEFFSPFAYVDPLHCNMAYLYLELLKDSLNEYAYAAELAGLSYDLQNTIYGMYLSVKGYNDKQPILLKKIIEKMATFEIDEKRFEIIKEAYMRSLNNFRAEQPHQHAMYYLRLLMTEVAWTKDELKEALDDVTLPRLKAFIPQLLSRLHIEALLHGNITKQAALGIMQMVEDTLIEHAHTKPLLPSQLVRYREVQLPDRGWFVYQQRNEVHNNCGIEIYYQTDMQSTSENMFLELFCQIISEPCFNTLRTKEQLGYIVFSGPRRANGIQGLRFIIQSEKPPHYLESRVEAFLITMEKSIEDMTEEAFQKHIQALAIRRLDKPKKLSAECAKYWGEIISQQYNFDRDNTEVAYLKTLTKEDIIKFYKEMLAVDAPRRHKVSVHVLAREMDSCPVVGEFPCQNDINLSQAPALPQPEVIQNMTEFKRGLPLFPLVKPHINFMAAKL
- protocol-notes: Wet-lab test of inhibition of IDE
- Assay type: biochemical
- condition-parameters: binding to IDE; computed value
outcome-measure: IC50 (µM)
Could you give me the number in µM? Just the number is fine.

q: Entry under review: Cl.N=C(N)NC(=O)c1nc(Cl)c(N)nc1N.O.O [Amiloride HCl dihydrate] . Reported IC50?
a: 214

q: Entry under review: CN(C)c1nc(N)c(C(=O)N=C(N)N)nc1Cl.Cl [5-(N,N-Dimethyl) amiloride hydrochloride] . Reported IC50?
a: 178

----------
- tested-target: NEP (Homo sapiens)
- Sequence (P08473 whole entry): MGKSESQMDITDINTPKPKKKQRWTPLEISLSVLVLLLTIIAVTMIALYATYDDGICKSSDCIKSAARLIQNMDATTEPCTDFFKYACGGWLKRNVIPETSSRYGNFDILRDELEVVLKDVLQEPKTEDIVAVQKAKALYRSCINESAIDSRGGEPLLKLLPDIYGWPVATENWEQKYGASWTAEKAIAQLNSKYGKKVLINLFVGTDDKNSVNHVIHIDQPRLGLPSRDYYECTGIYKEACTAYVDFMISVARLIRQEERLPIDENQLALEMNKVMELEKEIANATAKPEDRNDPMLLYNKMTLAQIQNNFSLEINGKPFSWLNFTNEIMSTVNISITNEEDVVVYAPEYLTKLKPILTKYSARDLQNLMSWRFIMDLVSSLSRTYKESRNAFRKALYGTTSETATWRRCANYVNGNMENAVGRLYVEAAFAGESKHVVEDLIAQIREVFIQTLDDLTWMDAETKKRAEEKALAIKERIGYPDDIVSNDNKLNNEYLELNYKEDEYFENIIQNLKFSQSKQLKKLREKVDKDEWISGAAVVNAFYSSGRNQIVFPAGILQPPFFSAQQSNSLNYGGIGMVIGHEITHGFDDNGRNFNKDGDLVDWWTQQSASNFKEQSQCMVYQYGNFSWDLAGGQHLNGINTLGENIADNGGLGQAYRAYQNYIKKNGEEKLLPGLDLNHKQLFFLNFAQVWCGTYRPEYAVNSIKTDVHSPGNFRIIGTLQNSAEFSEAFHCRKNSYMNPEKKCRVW
outcome-measure: pIC50
Quick note: pIC50 values are minus log10 of concentrations in mol/L.

q: Which pIC50 is reported with NEP (Homo sapiens) for this entry: CN(C)c1nc(N)c(C(=O)N=C(N)N)nc1Cl.Cl [5-(N,N-Dimethyl) amiloride hydrochloride] ?
a: 3.08
